Entry source: paper PMC9503778

- Test system: C. albicans (yeast) ATCC 90028
- Method Summary: Antimicrobial growth inhibition (CO-ADD), C. albicans
- Format: cell-based, Candida albicans
- Condition Parameters: Candida albicans, ATCC90028; ATCC 90028; read-out: MIC C. albicans
Each entry below carries its reported MIC.

Lab book: MIC of COC1=C(Br)[C@H](O)[C@@]2(C=C1Br)CC(C(=O)NCCCCNC(=O)C1=NO[C@]3(C=C(Br)C(OC)=C(Br)[C@@H]3O)C1)=NO2 [Compound 2, aerothionin] noted as > 32 µg/mL

Lab book: MIC of COC1=C(Br)[C@H](O)[C@@]2(C=C1Br)CC(C(=O)NCCCOc1c(Br)cc(CCN)cc1Br)=NO2 [Compound 11, araplysillin I] noted as > 32 µg/mL

Lab book: MIC of COC1=C(Br)[C@H](O)[C@@]2(C=C1Br)CC(C(=O)NCCCCCNC(=O)C1=NO[C@]3(C=C(Br)C(OC)=C(Br)[C@@H]3O)C1)=NO2 [Compound 3, homoaerothionin] noted as > 32 µg/mL
